- Tested on: H929 cells
- Assay method text: Cell viability assay (Cell TiterGlo)
- Assay type: cell-based
- Test settings: 24 hours at 37° C., Cell TiterGlo luminescence
Reported property: pIC50
Value format note: pIC50 is -log10 of concentration (mol/L); just state the number.

Please give the measured pIC50 for this molecule: `CN1CCc2c(C3=CCNCC3)[nH]c3nccc(c23)-c2cc(F)ccc21`
7.00

# pIC50 lookup, item `CN(C)C(=O)CN1CC=C(c2[nH]c3nccc4c3c2CCN(C)c2ccc(F)cc2-4)CC1`
6.89

I am curious: what pIC50 value has been reported for `CN1CCc2c(C3=CCN(S(C)(=O)=O)CC3)[nH]c3nccc(c23)-c2cc(F)ccc21` ?
6.82

// pIC50 lookup, key: `CN1CCc2c(C3=CCN([C@H]4C[C@H](C(=O)O)C4)CC3)[nH]c3nccc(c23)-c2cc(F)ccc21`
6.72

Which pIC50 is reported for this molecule? `CN1CCc2c(C3=CCN([C@H]4C[C@@H](C(=O)O)C4)CC3)[nH]c3nccc(c23)-c2cc(F)ccc21`
6.54

###

- Tested on: CDK9/Cyclin T1 (Homo sapiens (Human), UniProt P50750)
- Sequence (P50750 whole entry): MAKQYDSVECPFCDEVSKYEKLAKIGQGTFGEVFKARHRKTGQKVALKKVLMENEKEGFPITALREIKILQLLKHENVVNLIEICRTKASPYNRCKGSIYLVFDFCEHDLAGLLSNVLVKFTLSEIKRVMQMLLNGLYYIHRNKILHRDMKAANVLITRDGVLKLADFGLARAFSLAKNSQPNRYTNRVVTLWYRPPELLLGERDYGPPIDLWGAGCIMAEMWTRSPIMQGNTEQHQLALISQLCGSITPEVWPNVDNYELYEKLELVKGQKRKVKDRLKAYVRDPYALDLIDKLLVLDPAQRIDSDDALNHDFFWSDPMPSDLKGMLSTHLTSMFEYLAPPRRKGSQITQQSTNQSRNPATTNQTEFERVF
- Sequence (O60563 whole entry partner): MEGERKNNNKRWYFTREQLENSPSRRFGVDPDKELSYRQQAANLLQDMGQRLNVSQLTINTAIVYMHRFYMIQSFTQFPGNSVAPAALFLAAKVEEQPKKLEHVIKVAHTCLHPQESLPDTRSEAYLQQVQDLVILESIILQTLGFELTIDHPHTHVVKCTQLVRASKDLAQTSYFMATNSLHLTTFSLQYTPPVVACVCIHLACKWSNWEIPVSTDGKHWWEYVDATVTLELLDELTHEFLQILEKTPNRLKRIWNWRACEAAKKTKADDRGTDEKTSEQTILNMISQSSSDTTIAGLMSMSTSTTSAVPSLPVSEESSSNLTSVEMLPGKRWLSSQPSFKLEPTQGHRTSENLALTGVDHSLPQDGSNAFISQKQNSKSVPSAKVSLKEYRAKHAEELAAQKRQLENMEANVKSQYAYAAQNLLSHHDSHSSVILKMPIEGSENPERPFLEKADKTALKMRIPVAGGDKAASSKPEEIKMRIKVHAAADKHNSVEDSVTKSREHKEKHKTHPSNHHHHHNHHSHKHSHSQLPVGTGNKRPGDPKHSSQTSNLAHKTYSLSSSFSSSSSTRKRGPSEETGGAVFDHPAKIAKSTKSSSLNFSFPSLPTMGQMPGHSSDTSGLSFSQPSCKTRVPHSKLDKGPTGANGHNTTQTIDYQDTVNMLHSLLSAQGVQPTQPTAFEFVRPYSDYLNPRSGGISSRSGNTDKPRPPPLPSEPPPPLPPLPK
- Assay method text: CDK9 enzyme assay (LANCE ULight TR-FRET kinase assay)
- Test settings: 1000 μM ATP, 100 nM ULight MBP, kinase reaction 1 hour
Structures can show the parent of a compound that is named as a salt.
Assign IC50 to each entry below.
Express your answer in nM, writing the number without its unit.

May I ask what IC50 has been recorded for `CN1Cc2c(C3=C[C@H]4COC(=O)N4CC3)[nH]c3nccc(c23)-c2cc(F)ccc21` ?
41

Fill blank: measured IC50 of the molecule `CNC(=O)N1CC=C(c2[nH]c3nccc4c3c2CN(C)c2ncccc2-4)CC1` is ____.
94

For `CN1Cc2c(C3CCN(CC(=O)N4CCC[C@H]4CO)CC3)[nH]c3nccc(c23)-c2cc(F)ccc21` , what is its reported IC50?
93

Please give the measured IC50 for this molecule: CN1Cc2c(C3=CCN(C4CCC(=CC(=O)OC(C)(C)C)CC4)CC3)[nH]c3nccc(c23)-c2cc(F)ccc21 (stereo not shown)
120

Consider the molecule shown here: CN1Cc2c(C3=CCN(CC(=O)O)CC3)[nH]c3nccc(c23)-c2cc(F)ccc21 [Example 16, dihydrochloride] What is its recorded IC50?
61

For the molecule shown here, `Fc1ccc2c(c1)-c1ccnc3[nH]c(C4=CCNCC4)c(c13)CO2` , give the reported IC50.
20

What IC50 value was documented for this molecule, `CN1Cc2c(C3=CCN(CC(=O)N4CC(O)C4)CC3)[nH]c3ncc(F)c(c23)-c2cc(F)ccc21` ?
79

###

- Tested on: CDK9/Cyclin T1 (Homo sapiens (Human), UniProt P50750)
- Assay method text: CDK9 enzyme assay (LANCE ULight TR-FRET kinase assay)
- Test settings: 1000 μM ATP, 100 nM ULight MBP, kinase reaction 1 hour
pIC50: −log10 of the molar value.
# label = Y if pIC50 >= 7 else N

Test whether the molecule `CC[C@H]1c2c(C3=CCNCC3)[nH]c3nccc(c23)-c2cc(F)ccc2N1C` records pIC50 of 7 or higher.
Y

Does CN1Cc2c(C3=CCN(CC(=O)N(C)C4CC(O)C4)CC3)[nH]c3ncc(F)c(c23)-c2cc(F)ccc21 (stereo not drawn) have a reported pIC50 of at least 7?
Y

Kindly determine if pIC50 recorded for `CN1Cc2c(C3=CCN(C(=O)OC(C)(C)C)CC3)[nH]c3ncc(F)c(c23)-c2cc(F)ccc21` is above or exactly 7.
N

Form field: pIC50 at least 7? Entry: CN1Cc2c(C3=CCN(C4CCC(=CC#N)CC4)CC3)[nH]c3nccc(c23)-c2cc(F)ccc21 (stereo not drawn)
Y

Could you please find out whether `CN(C)C(=O)CN1CC=C(c2[nH]c3nccc4c3c2CN(C)c2ccc(F)cc2-4)C(C)(C)C1` has pIC50 that meets 7 or exceeds it?
N

Does pIC50 meet or surpass 7 for `CN1Cc2c(-c3cnc(N)nc3)[nH]c3nccc(c23)-c2cc(F)ccc21` ?
N
